Listing: PBM E-score of selected sequences
- study target: Cin5 (UniProt P40917)
- Sequence: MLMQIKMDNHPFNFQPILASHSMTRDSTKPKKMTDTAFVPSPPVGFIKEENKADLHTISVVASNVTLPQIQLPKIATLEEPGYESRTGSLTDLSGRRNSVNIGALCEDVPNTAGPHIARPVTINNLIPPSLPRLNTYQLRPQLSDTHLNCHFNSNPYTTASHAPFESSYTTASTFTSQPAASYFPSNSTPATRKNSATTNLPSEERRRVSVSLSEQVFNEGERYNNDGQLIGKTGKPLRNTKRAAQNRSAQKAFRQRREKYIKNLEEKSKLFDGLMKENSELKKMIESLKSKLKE
- protocol notes: PBM E-score (8-mer binding enrichment) (E-score (-0.5 to 0.5)); higher = stronger / more preferred TF binding
- conditions used: protein concentration: 100 nM; construct: GST-full length
Whole data set: some 33,000 sequences, median “E-score (-0.5 to 0.5)” near -0.0059, cut for the highest 2% near 0.26. The entries come from a sample that favours the highest values as a whole.
Note: the reply should be a number with no unit written.

stdin: Any idea what PBM E-score came out for "CCAGATTA" on Cin5 (UniProt P40917)?
stdout: 0.225

stdin: Proceed to "AAATATTT"
stdout: 0.141

stdin: What do you get for "GAATATTC" ?
stdout: 0.265

stdin: Same question for "GCACCGAC" please.
stdout: -0.0796

stdin: Would you mind doing "GGTAGCAC" as well?
stdout: -0.152

stdin: Proceed to "GAGCTTTA"
stdout: -0.0441

* * *

- study target: Cin5 (UniProt P40917)
- Sequence: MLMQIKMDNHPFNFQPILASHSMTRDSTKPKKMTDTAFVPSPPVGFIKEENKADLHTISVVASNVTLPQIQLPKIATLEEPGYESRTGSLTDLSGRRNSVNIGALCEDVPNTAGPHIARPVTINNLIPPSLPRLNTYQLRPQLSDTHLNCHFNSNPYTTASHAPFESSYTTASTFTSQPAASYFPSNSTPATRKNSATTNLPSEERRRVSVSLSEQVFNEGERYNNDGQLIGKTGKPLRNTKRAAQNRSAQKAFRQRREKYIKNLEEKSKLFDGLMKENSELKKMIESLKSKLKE
- protocol notes: PBM E-score (8-mer binding enrichment) (E-score (-0.5 to 0.5)); higher = stronger / more preferred TF binding
- conditions used: protein concentration: 100 nM; construct: GST-full length
In all, about 33,000 sequences were measured (“E-score (-0.5 to 0.5)”: median about -0.0059, highest 2% from about 0.26 on). The entries come from a sample that favours the highest values as a whole.
# maps each entry to its PBM E-score

Sample answers from the record:
primary sequence	measured result
GAATATTA	0.274
AAAGACGA	0.036
AGCTTCCG	-0.0682
AAAGATTA	0.249
ACAGGCTA	-0.0671
CTATTAAC	0.115
AAATTAAA	0.214
ACAGGACG	-0.133
ATAGATAA	0.267
CAACTATC	0.0334

stdin: Entry "AAATTATA" has what PBM E-score?
stdout: 0.262

stdin: Try this sequence next: "AGCGTCAG"
stdout: -0.124

stdin: What do you have for "ACGGCAAA" ?
stdout: 0.0612

stdin: // query: "AGCTACCT"
stdout: -0.0535

stdin: Lookup "CAATATAA"
stdout: 0.295

* * *

- study target: Cin5 (UniProt P40917)
- Sequence: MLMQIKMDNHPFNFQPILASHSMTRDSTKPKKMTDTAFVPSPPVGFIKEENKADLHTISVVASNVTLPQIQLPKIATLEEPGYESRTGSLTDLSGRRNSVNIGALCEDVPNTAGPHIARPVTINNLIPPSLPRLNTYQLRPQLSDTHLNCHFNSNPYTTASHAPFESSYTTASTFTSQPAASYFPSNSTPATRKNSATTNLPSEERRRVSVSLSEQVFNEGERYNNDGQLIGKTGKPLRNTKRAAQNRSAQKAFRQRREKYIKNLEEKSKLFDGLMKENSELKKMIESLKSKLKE
- protocol notes: PBM E-score (8-mer binding enrichment) (E-score (-0.5 to 0.5)); higher = stronger / more preferred TF binding
- conditions used: protein concentration: 100 nM; construct: GST-full length
The full ranking holds about 33,000 sequences; the median of “E-score (-0.5 to 0.5)” is about -0.0059, and the highest 2% start at about 0.26. The list comes from a sample in which the highest values are over-represented; it also holds close analogues and randomly drawn sequences.
readout kind: PBM E-score
Reply: number alone, nothing else.

// known answers, use as guide
primary sequence	PBM E-score
ATCGACTG	0.101
TCTGCACA	-0.00335
ATTTTCCC	0.0377

stdin: Would you mind telling me what PBM E-score value was observed for "TAATACAA" ?
stdout: 0.232

stdin: What about "AAATTACG" ?
stdout: 0.171

* * *

- study target: Cin5 (UniProt P40917)
- Sequence: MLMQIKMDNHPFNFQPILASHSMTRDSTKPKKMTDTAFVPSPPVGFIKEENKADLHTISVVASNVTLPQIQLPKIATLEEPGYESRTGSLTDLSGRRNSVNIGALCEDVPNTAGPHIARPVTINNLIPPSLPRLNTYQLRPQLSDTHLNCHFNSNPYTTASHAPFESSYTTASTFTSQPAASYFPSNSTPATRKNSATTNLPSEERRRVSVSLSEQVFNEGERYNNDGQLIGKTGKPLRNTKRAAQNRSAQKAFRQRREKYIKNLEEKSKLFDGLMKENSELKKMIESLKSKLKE
- protocol notes: PBM E-score (8-mer binding enrichment) (E-score (-0.5 to 0.5)); higher = stronger / more preferred TF binding
- conditions used: protein concentration: 100 nM; construct: GST-full length
Over roughly 33,000 sequences, “E-score (-0.5 to 0.5)” has its median near -0.0059; the highest 2% begin near 0.26. The sample holds the highest values, similar sequences and a random draw of the others, so the mix is not that of the screen.
Measured PBM E-score accompanies every entry in the list below.
Form: value (number only, do not type unit).

stdin: Please report the recorded PBM E-score for "CGTACATA" .
stdout: 0.191

stdin: Continue with "GACCTTCC"
stdout: -0.147

* * *

- study target: Cin5 (UniProt P40917)
- Sequence: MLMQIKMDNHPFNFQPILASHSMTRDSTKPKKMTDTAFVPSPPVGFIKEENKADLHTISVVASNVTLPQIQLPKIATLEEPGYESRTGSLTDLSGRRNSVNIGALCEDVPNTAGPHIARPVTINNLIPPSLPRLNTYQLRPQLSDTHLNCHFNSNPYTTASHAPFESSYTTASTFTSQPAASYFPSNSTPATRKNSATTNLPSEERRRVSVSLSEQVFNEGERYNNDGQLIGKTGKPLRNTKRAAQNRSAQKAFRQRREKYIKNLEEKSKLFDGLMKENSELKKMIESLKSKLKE
- protocol notes: PBM E-score (8-mer binding enrichment) (E-score (-0.5 to 0.5)); higher = stronger / more preferred TF binding
- conditions used: protein concentration: 100 nM; construct: GST-full length
Whole data set: some 33,000 sequences, median “E-score (-0.5 to 0.5)” near -0.0059, cut for the highest 2% near 0.26. What follows is part of a selection rich in the highest values, with near analogues and random picks from the rest.
# label = 1 (yes) if PBM E-score >= 0.1 else 0 (no)

These recorded examples may help you get a feel for the data.
primary sequence	assigned label
AAATGAAA	1 (yes)
CAAATGAA	0 (no)
AGCTTACC	1 (yes)
ACGTTTCG	0 (no)
ATATGAAA	1 (yes)
CGGGGAAG	0 (no)
ATTACACG	0 (no)
CTAATACA	1 (yes)
ATCTAGAC	0 (no)
ACAATACG	0 (no)

stdin: In plain terms: is recorded PBM E-score at least 0.1 for "ACTACATA" ?
stdout: 1 (yes)

stdin: Then what about the sequence "GATATTGA" ?
stdout: 0 (no)

stdin: Same question, "CGCTTACA" this time
stdout: 1 (yes)

* * *

- study target: Cin5 (UniProt P40917)
- Sequence: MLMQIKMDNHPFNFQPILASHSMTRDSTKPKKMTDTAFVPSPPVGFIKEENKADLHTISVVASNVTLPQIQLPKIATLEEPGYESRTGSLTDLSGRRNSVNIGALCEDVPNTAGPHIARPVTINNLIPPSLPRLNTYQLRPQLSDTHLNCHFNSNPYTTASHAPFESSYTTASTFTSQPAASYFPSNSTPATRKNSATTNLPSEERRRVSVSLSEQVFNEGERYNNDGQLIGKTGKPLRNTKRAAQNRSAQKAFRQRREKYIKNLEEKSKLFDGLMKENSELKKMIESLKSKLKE
- protocol notes: PBM E-score (8-mer binding enrichment) (E-score (-0.5 to 0.5)); higher = stronger / more preferred TF binding
- conditions used: protein concentration: 100 nM; construct: GST-full length
The full ranking holds about 33,000 sequences; the median of “E-score (-0.5 to 0.5)” is about -0.0059, and the highest 2% start at about 0.26. The entries come from a sample that favours the highest values as a whole.
# binarize PBM E-score: threshold -0.04 inclusive, high side true, low side false

Below, 3 sequences whose answers are already recorded.
primary sequence	assigned label
AGACCTTC	false
CCCAAGGC	false
GAGTGCTA	true

stdin: Answer whether PBM E-score of "GGCCTGGA" is greater than or equal to -0.04.
stdout: false

stdin: Try this sequence next: "AACGCACT"
stdout: true

stdin: Next: "CCCTCGGC"
stdout: false
